molecular target: CHEK1 (human) (UniProt O14757); conditions: compound 10.0 µM
Sequence (O14757 whole entry, looked up): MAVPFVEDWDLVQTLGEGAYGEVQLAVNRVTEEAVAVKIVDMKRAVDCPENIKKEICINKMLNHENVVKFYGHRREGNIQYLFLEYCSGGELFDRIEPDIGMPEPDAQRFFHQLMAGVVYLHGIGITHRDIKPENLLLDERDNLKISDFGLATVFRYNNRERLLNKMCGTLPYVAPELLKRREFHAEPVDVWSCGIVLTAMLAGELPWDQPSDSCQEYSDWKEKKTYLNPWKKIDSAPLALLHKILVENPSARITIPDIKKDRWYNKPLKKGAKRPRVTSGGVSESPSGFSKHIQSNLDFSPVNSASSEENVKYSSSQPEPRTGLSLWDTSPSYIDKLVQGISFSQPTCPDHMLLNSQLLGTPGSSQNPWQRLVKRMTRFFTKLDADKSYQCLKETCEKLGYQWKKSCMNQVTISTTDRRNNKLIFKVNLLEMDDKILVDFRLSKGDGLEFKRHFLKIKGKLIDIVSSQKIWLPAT
Form field: per cent of control (one value per entry).
Answer with a number only, understood to be in %.

COc1ccc(-c2ccc3c(N4CCOCC4)nc(N4C[C@@H](C)O[C@@H](C)C4)nc3n2)cc1CO 86

IN: Please report the measured per cent of control for CC(C)n1nc(-c2cc3cc(O)ccc3[nH]2)c2c(N)ncnc21
OUT: 34

IN: Give recorded per cent of control. CCC(=O)N1CCN(c2ccc(-n3c(=O)ccc4cnc5ccc(-c6cnc7ccccc7c6)cc5c43)cc2C(F)(F)F)CC1
OUT: 125

IN: Respond only with per cent of control recorded for COC(=O)Nc1ccc(-c2nc(N3CCOCC3)c3cnn(C4CCN(C(=O)OC)CC4)c3n2)cc1
OUT: 92
